Test system: A549
measurement_protocol: NCI tumour cell line growth inhibition, 48 h
Active and inactive are the calls of the source. Cut-off read from the data, not from the text of the source: active = GI50 up to about 1.1 µM and inactive = higher.
Form entry, call: pick from class 1 (active), class 0 (inactive)

Study these solved cases before continuing.
[[record]]
compound = "O=C1C(Br)=C[C@H]2C3C=CC(Br)(C3=O)[C@@H]12 (stereo not given in full)"
category = "class 0"

[[record]]
compound = "CC(=O)SCCC(NC(=S)Nc1ccccc1)P(=O)(Oc1ccccc1)Oc1ccccc1 (stereo not given)"
category = "class 0"

[[record]]
compound = "CCOC(=O)CN1C(=O)c2ccc(NC(=O)C(=O)O)cc2S1(=O)=O"
category = "class 0"

[[record]]
compound = "CN(C)Cc1cc(C(=O)/C=C/c2ccc(/C=C/C(=O)c3cc(CN(C)C)c(O)c(CN(C)C)c3)cc2)cc(CN(C)C)c1O"
category = "class 0"

[[record]]
compound = "CC(=O)c1cccc(N2COC(C)(C)c3nc4ccccc4n3C2)c1"
category = "class 0"


Enquiry: Could you please tell me the result logged for COC(=O)[C@H](Cc1ccc(OC(C)(C)C)cc1)N[C@H](C)C(=O)N[C@@H](Cc1ccccc1)C(=O)OCc1ccccc1 in this assay?
Return: class 0

Enquiry: Could you please tell me the result logged for C=CCN(c1cc(OCc2ccccc2)c2[nH]cc(C)c2c1)S(C)(=O)=O in this assay?
Return: class 0

Enquiry: Could you please tell me the result logged for O=C1C(=Cc2ccco2)C(=O)C2CCCCC12 (stereo not given) in this assay?
Return: class 0

Enquiry: Could you please tell me the result logged for Cc1ccc(/N=N/c2c(O)ccc3cc(S(=O)(=O)O)cc(S(=O)(=O)O)c23)cc1 in this assay?
Return: class 0

Every entry's value here was drawn from ChEMBL document CHEMBL1201862.
